# Tested System: D(4) dopamine receptor (Rattus norvegicus, UniProt P30729)
# Sequence (P30729 whole entry): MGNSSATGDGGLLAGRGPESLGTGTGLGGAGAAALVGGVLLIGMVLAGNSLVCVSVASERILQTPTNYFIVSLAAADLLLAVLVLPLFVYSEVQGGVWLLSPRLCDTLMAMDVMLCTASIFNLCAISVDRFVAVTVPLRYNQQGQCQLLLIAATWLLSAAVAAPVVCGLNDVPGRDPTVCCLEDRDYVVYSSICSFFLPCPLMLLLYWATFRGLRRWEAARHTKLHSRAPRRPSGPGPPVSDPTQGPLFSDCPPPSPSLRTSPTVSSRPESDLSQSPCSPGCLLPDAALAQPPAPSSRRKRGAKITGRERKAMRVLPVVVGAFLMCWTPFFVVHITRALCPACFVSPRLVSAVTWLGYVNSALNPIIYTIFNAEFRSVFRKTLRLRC
pKi: −log10 of the molar value.
Experimental Readout: pKi

Request - read-out pKi | tested on D(4) dopamine receptor (Rattus norvegicus, UniProt P30729) | compound `COC(=O)[C@@H]1C[C@H](OC(C)=O)C(=O)[C@H]2[C@@]1(C)CC[C@H]1C(=O)O[C@H](c3ccoc3)C[C@]21C`
< 5.00

* * *

# Tested System: Beta-1 adrenergic receptor (Rattus norvegicus, UniProt P18090)
# Sequence (P18090 whole entry): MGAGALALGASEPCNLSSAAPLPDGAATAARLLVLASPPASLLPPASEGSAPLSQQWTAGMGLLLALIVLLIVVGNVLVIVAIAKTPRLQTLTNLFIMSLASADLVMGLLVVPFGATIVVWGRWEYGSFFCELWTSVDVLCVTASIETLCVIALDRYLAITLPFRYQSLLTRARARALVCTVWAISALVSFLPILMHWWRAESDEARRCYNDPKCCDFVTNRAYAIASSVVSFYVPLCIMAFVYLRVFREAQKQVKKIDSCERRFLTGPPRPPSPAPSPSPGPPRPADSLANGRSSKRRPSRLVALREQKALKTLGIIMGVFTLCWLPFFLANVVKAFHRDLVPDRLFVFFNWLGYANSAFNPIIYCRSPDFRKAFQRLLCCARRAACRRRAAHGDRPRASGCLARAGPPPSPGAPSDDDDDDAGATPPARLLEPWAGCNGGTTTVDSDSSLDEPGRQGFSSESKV
pKi: −log10 of the molar value.
Experimental Readout: pKi

Request - read-out pKi | tested on Beta-1 adrenergic receptor (Rattus norvegicus, UniProt P18090) | compound `COC(=O)[C@@H]1C[C@H](OC(C)=O)C(=O)[C@H]2[C@@]1(C)CC[C@H]1C(=O)O[C@H](c3ccoc3)C[C@]21C`
< 5.00
